B1: TPR t1 (parent)
chain: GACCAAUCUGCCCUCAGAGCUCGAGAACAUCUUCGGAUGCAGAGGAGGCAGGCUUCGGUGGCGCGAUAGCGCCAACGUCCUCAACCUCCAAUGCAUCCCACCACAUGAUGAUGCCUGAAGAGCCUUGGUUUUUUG

- Variants of: B1
- experimental.details: polymerase ribozyme fitness, log enrichment relative to wild type (log ratio); higher = more active; in vitro selection for triplet polymerase activity
Give measured polymerase ribozyme fitness (log ratio) for each item. Keep answers brief.
One number for each entry.

See these solved cases before continuing.
Give the reported value of polymerase ribozyme fitness (log ratio) for this record: C64U U92C G113A G127U U131C
-3.48

Give the reported value of polymerase ribozyme fitness (log ratio) for this record: A16C G120A
-2.28

Give the reported value of polymerase ribozyme fitness (log ratio) for this record: U7A A74G
-0.408

Give the reported value of polymerase ribozyme fitness (log ratio) for this record: A18U A111G U129A
-4.75

Give the reported value of polymerase ribozyme fitness (log ratio) for this record: C13U C34U C40U A50G U59C
-5.78

Give the reported value of polymerase ribozyme fitness (log ratio) for this record: C73G U81G
-3.66

Give the reported value of polymerase ribozyme fitness (log ratio) for this record: C53A G61U C82G A84G
-0.925

Give the reported value of polymerase ribozyme fitness (log ratio) for this record: A27C C56G
-3.34

Report polymerase ribozyme fitness (log ratio) for each item below.
1. A6U G63C C80U G93C U106A
2. A27U C49U A90G G93U
3. C34U C53U C56U
4. U78A U87G

1. -3.58
2. -3.23
3. -5.01
4. -0.804

Report polymerase ribozyme fitness (log ratio) for each item below.
1. C40A G63U C104A G120A U130G
2. C88U G120A G128A
3. G19C G71U G120U G122A C123U
4. C40U G48U A50C G51A
5. G19A C53A C101U

1. -5.07
2. -1.29
3. -3.78
4. -3.99
5. -2.73
